Recorded GI50 values for a group of compounds are listed next.
tested on: MDA-MB-435; assay: NCI tumour cell line growth inhibition, 48 h
Active and inactive are the calls of the source. Rule as the data show it: active = GI50 up to about 1.1 µM and inactive = higher.
Quantity: GI50

Compound	Quantity	Reported Result
C[C@@H](CC(=O)O)OC1OC(COC(=O)C(C)(C)C)C(OC(=O)C(C)(C)C)C(OC(=O)C(C)(C)C)C1OC(=O)C(C)(C)C (stereo partly drawn)	GI50	53.3 µM (inactive)
CC(C)NC(=O)OCc1c(COC(=O)NC(C)C)c(-c2ccc[n+](COC(=O)CC(C)(C)C)c2)n2c1CCC2	GI50	> 100 µM (inactive)
COC1CC(OC2C(C)OC(OC3C(C)OC(OC4C(C)OC(O[C@H]5CC[C@@]6(C)C(=CC[C@]7(O)[C@@H]6C[C@@H](OC(=O)/C=C(\C)C(C)C)[C@@]6(C)[C@]7(O)CC[C@@]6(O)C(C)=O)C5)CC4OC)CC3OC)CC2OC)OC(C)C1O (stereo partly drawn)	GI50	> 12.5 µM (inactive)
O=C1C=CC(=O)C(CNc2ccc(C(=O)OCc3ccccc3)cc2)=C1	GI50	5.06 µM (inactive)
COc1ccc(C[N+]23C(CC[C@H]2c2ccccc2)CC[C@H]3c2ccccc2)cc1 (stereo partly drawn)	GI50	9.84 µM (inactive)
CCOC(=O)CC(=O)Nc1cccc2nc[nH]c12	GI50	> 100 µM (inactive)
COc1cc2nc(-c3cccs3)nc(N3CCN(c4ccccc4)CC3)c2cc1OC	GI50	> 100 µM (inactive)
CC1=C(C)C(=O)C(C2=C(C3=CC(=O)C(C)=C(C)C3=O)C(=O)c3ccccc3C2=O)=CC1=O	GI50	1.5 µM (inactive)

----------
system: DMS-273; test: NCI tumour cell line growth inhibition, 48 h
The source made the active and inactive calls. No stated cut-off is given here; in the data, active = GI50 up to about 1.1 µM and inactive = higher.
GI50 for assorted compounds
Quantity: GI50

Compound	Target Desc	Reported Result
CCOC(=O)C(=O)C(C#N)c1ccc(Cl)cc1 (configuration not stated)	DMS-273	> 100 µM (inactive)
CC(C)Cc1ccc(C(C)/C=C2\CCC(CN3CCCC3)C2=O)cc1 (configuration not stated)	DMS-273	4.5 µM (inactive)
Cc1ccc(C)c(NC(=O)CCc2n[nH]c(=S)o2)c1	DMS-273	> 100 µM (inactive)
CCN(CC)CCN(C)CC(C)(C)C(=O)/C=C/c1ccccc1	DMS-273	13 µM (inactive)
CC(C)N(C(=O)c1cccc(C(=O)N(C(C)C)C(C)C)c1)C(C)C	DMS-273	> 100 µM (inactive)
COc1ccc(O)c(C#N)c1C#N.COc1ccc(OC)c(C#N)c1C#N	DMS-273	> 100 µM (inactive)
COc1ccc2occ(CCC(=O)O)c2c1	DMS-273	> 100 µM (inactive)
CN(C)CCS/C(=N\c1ccccc1)N1C=COC=C1	DMS-273	18.4 µM (inactive)
Brc1ccc2[nH]c3c(C4=NCCC4)nccc3c2c1	DMS-273	14.4 µM (inactive)
CCOC(=O)C1N(S(=O)(=O)c2ccc(C)cc2)CCC12C(c1ccc(OC)c(OC)c1)=Nc1ccccc12 (configuration not stated)	DMS-273	> 100 µM (inactive)
CC[N+](C)(CC)CC(C)(C)C(=O)/C=C/c1ccc(/C=C/C(=O)C(C)(C)C[N+](C)(CC)CC)cc1	DMS-273	> 100 µM (inactive)
CCOc1ccc2nc(NC(=O)c3c/c(=N\NC(=O)C[N+](C)(C)C)c4ccc(O)cc4o3)sc2c1	DMS-273	3.34 µM (inactive)
COc1ccc2[nH]c3c4c(cc(-c5ccccc5)c3c2c1)C(=O)N(c1ccccc1)C4=O	DMS-273	2.07 µM (inactive)
Cc1ccc(-c2cc(-c3ccccc3)c(C#N)c(=O)n2C2OC(CO)C(O)C(O)C2O)cc1 (configuration not stated)	DMS-273	> 100 µM (inactive)
Nc1nc(Cl)cc(NCCCCCNc2cc(Cl)nc(N)n2)n1	DMS-273	> 100 µM (inactive)
CCOC(=O)/C(C#N)=C(O)/C(=C\c1ccc(Br)cc1)NC(=O)c1ccccc1	DMS-273	> 100 µM (inactive)
CCCCCCCCCCCCCP(=O)(O)O	DMS-273	50.9 µM (inactive)
COc1ccc2c(c1)CC1c3c(ccc(OC)c3O)CC2N1C (configuration not stated)	DMS-273	22.4 µM (inactive)
O=C(O)CCC(=O)OCN1C(=O)C2C3C=CC(C2C1=O)C1C2C(=O)N(COC(=O)CCC(=O)O)C(=O)C2C31 (configuration not stated)	DMS-273	> 43.2 µM (inactive)
CN(C)CC1CC/C(=C\c2ccc3c(c2)OCO3)C1=O (configuration not stated)	DMS-273	16.8 µM (inactive)
Cc1cccc(NC(=O)c2cccc([N+](=O)[O-])c2O)c1C	DMS-273	22.2 µM (inactive)
CCN(CC)C(=O)CCn1cc(F)c(=O)[nH]c1=O	DMS-273	> 100 µM (inactive)
